Tested system: AChE from electrophorus electricus (Electrophorus electricus, UniProt O42275)
Sequence (O42275 24-633): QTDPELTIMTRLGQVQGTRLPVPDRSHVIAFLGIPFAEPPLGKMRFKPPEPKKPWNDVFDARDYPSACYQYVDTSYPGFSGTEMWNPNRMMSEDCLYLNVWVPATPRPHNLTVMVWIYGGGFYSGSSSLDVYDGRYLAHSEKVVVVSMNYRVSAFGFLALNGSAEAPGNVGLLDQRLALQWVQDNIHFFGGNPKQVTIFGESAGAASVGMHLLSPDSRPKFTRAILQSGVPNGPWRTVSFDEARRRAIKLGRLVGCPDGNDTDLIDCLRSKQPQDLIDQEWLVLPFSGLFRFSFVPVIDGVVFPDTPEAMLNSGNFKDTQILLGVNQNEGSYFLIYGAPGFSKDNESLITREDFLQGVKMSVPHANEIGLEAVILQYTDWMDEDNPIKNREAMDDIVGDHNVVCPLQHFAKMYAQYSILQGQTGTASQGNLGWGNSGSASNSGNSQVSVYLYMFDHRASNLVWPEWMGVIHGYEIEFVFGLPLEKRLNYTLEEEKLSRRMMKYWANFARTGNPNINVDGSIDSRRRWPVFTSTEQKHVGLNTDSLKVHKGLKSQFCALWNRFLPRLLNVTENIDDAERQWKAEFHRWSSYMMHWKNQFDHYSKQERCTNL
Assay protocol: biochemical
Measurement parameters: isolated compounds; read-out: AChE (IC50)
Measured attribute: pIC50
The read-out pIC50 is expressed as -log10 of concentration in moles per litre.

Looking up O=C1C[C@@H](c2ccccc2)Oc2cc(O)cc(O)c21 , I found its pIC50 recorded as 2.96

---

Tested system: AChE from electrophorus electricus (Electrophorus electricus, UniProt O42275)
Assay protocol: biochemical
Method: Briefly, 50 μL of 5,5′‐dithio‐bis(2‐nitro‐benzoic) acid compound (DTNB) and 100 μL of Tris–HCl solution (1 M, pH 8.0) and 50 μL AChE from electrophorus electricus (5.32 × 10^−3 U) solution was incubated and stirred at 30°C for 15 min. […] Enzymatic hydrolysis of the substrate was recorded spectrophotometrically at a wavelength of 412 nm (Işık et al., [2020]; Wright & Plummer, [1973]). […] Percent inhibition values and IC50 values were determined using a graph (Kilic et al., [2020]).
Measured attribute: IC50
Could you give the number and then its unit, please?

Some solved entries appear below for comparison.
O=c1cc(-c2ccc(O)cc2)oc2cc(O)cc(O)c12    710 µM
O=C1c2c(O)cc(O)cc2O[C@H](c2ccccc2)[C@H]1O    450 µM
O=c1c(O)c(-c2ccccc2)oc2cc(O)cc(O)c12    790 µM
COc1cc2ccc(=O)oc2c(O)c1O    730 µM
O=c1cc(-c2ccccc2)oc2cc(O)cc(O)c12    640 µM

// next entry
Looking up COc1cc(O)c2c(=O)cc(-c3ccc(O)cc3)oc2c1 , I found its IC50 recorded as 1150 µM
